Molecular target: cynomolgus monkey (cyno) TIGIT protein (cynomolgus monkey, UniProt A0A7N9I9V4 89-209)
Sequence (A0A7N9I9V4 entry or part of it): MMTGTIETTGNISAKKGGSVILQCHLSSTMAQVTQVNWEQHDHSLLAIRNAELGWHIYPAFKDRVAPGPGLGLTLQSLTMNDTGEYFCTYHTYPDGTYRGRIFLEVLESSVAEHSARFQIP
Assay: SPR, captured mAb
measured_parameter: koff (s⁻¹)
Answers are plain numbers, in s⁻¹.

h15C8.L1H6 (antibody, V domains shown, VH: L69I (printed L691) against h15C8.L1H1; FR/HVR pieces) VH: EVQLVQSGAEVKKPGASVKVSCKASGYTFTEHSIYWLRQAPGQRLEIIGRIDPKNGRTYFVDKFKNRATITTDTSASTAYMELSSLRSEDTAVYFCARIDGFYFDFWGQGTLVTVSS VL: DIQLTQSPSFLSASVGDRVTITCKGSQNVNKYLVWYQQKPGKAPKLLIYSTDNLQSGIPSRFSGSGSGTEYTLTISSLQPEDFATYFCYQYNNGFTFGQGTKVEIK ... 0.000556

Tell me measured koff for h15C8.L2H1 (antibody, V domains shown, VL: I58V against h15C8.L1H1; FR/HVR pieces) VH: EVQLVQSGAEVKKPGASVKVSCKASGYTFTEHSIYWLRQAPGQRLEIIGRIDPKNGRTYFVDKFKNRATLTTDTSASTAYMELSSLRSEDTAVYFCARIDGFYFDFWGQGTLVTVSS VL: DIQLTQSPSFLSASVGDRVTITCKGSQNVNKYLVWYQQKPGKAPKLLIYSTDNLQSGVPSRFSGSGSGTEYTLTISSLQPEDFATYFCYQYNNGFTFGQGTKVEIK please.
0.000502
